Molecular target: human VR1 (Homo sapiens, UniProt Q8NER1)
Construct: expressed in transfected cells; host or cells: HEK293
Sequence (Q8NER1 whole entry): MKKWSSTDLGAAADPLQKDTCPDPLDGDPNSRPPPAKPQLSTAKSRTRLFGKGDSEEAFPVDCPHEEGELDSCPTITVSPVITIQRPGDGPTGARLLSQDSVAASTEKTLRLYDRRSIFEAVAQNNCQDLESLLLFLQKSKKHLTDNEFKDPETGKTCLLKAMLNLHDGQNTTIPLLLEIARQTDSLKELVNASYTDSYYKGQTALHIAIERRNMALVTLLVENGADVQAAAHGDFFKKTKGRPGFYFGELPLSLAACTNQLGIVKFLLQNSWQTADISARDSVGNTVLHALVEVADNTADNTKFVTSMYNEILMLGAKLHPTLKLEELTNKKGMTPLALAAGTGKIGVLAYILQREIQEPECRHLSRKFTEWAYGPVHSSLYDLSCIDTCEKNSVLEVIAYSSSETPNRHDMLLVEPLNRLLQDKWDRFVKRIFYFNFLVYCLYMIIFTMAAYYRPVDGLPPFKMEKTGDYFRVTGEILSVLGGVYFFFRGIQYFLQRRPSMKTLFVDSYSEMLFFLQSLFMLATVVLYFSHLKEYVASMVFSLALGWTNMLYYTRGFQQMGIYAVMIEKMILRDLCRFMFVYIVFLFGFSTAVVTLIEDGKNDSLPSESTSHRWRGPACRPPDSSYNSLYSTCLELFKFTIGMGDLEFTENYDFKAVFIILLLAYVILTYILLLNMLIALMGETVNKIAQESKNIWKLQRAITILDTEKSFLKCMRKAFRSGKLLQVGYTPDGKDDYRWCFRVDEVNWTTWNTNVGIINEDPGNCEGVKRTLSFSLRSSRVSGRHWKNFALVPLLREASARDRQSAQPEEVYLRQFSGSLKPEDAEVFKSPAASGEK
Test: Human VR1 functional assay (intracellular Ca++, FLIPR, capsaicin challenge)
Format: cell-based
Conditions: hVR1, capsaicin challenge, read-out: FLIPR functional assay IC50 hVR1
pIC50: −log10 of the molar value.
Consider the following molecules and their measured pIC50 readings.
assay-metric: pIC50

1. O=C(Nc1cnc2ccccc2c1)c1ccc(N2CC[C@@H]3CCCC[C@H]3C2)nc1 (relative stereo) : 7.07
2. CCCCOc1ccc(C(=O)Nc2cnc3ccccc3c2)cc1 [4-Butoxy-N-quinolin-3-yl-benzamide] : 5.00
3. CCCN(CCC)c1ccc(C(=O)Nc2cnc3ccccc3c2)cc1 : 6.21
4. CCCCCNc1cccc(C(=O)Nc2cnc3ccccc3c2)c1 [3-Pentylamino-N-quinolin-3-yl-benzamide] : 5.57

* * *

Molecular target: human VR1 (Homo sapiens)
Construct: expressed in transfected cells; host or cells: HEK293
Experiment: Human VR1 functional assay (intracellular Ca++, FLIPR, capsaicin challenge)
Assay type: cell-based
Settings: hVR1, capsaicin challenge, read-out: FLIPR functional assay IC50 hVR1
pIC50: −log10 of the molar value.
assay-metric: pIC50

1. CC1(C)CCC(C)(C)c2cc(CCC(=O)Nc3cnc4ccccc4c3)ccc21 : 7.15
2. CCCC(=O)N1CCc2cc(C(=O)Nc3cnc4ccccc4c3)ccc21 : 5.74
3. CCCN(c1ccc(C(=O)Nc2cnc3ccccc3c2)cc1)C1CCCCC1 : 5.00
4. CC(=O)N(c1ccc(C(=O)Nc2cnc3ccccc3c2)cc1)C1CCCCC1 : 5.00
5. O=C(Nc1cnc2ccccc2c1)c1cc2cc(Cl)ccc2[nH]1 : 5.55
6. CC1CC(C)CN(c2ccc(C(=O)Nc3cnc4ccccc4c3)cc2)C1 (stereo not shown) : 5.74
7. CCCN1CCc2cc(C(=O)Nc3cnc4ccccc4c3)ccc21 : 6.39
8. CC(C)(C)C1CCC(C(=O)Nc2cnc3ccccc3c2)CC1 (stereo not shown) : 5.00
9. O=C(Nc1cnc2ccccc2c1)c1ccc(N2CC[C@@H]3CCCC[C@@H]3C2)cc1 (relative stereo) : 6.73
10. CC(=O)N1CCc2cc(C(=O)Nc3cnc4ccccc4c3)ccc21 : 5.50

* * *

Target: human VR1 (Homo sapiens, UniProt Q8NER1)
Construct: expressed in transfected cells; host or cells: HEK293
Test: Human VR1 functional assay (intracellular Ca++, FLIPR, capsaicin challenge)
Format: cell-based
Conditions: hVR1, capsaicin challenge, read-out: FLIPR functional assay IC50 hVR1
Consider the following compounds and their measured IC50 readings.
assay-metric: IC50 (µM)

1. CN(CCCc1ccccc1)c1ccc(C(=O)Nc2cnc3ccccc3c2)cc1 : 10
2. CC(C)CCN(C)c1ccc(C(=O)Nc2cnc3ccccc3c2)cc1 : 0.28
3. O=C(Nc1cnc2ccccc2c1)c1ccc(N2CCC(Cc3ccccc3)CC2)nc1 : 0.44
4. CN1CCCc2cc(C(=O)Nc3cnc4ccccc4c3)ccc21 : 0.69
5. O=C(Nc1cnc2ccccc2c1)c1ccc(N2CC3CCCC(C3)C2)nc1 : 3.7
6. CC(C)(C)c1ccc(C#CC(=O)Nc2cnc3ccccc3c2)cc1 : 0.066
7. O=C(Nc1cnc2ccccc2c1)c1cccc(NC2CCCCC2)c1 : 3.2
8. O=C(CCc1ccc2c(c1)CCN2CC1CCCCC1)Nc1cnc2ccccc2c1 : 1.2
9. CCCCC1CCC(C(=O)Nc2cnc3ccccc3c2)CC1 (stereo not drawn) : 0.17
10. CCCCCN1CCc2cc(C(=O)Nc3cnc4ccccc4c3)ccc21 : 0.084
11. CCCCC(C)(C)c1ccc(CCCC(=O)Nc2cnc3ccccc3c2)cc1 : 10
12. CCC(C)(C)c1cc(OC)c(CCC(=O)Nc2cnc3ccccc3c2)c(OC)c1 : 0.32
13. CN(CCC(C)(C)C)c1ccc(C(=O)Nc2cnc3ccccc3c2)cc1 : 10
14. O=C(Nc1cnc2ccccc2c1)c1ccc2c(ccn2C2CCCCC2)c1 : 0.074
15. CCC(C)(C)c1ccc(CCC(=O)Nc2cnc3ccccc3c2)cc1 : 0.0367
16. CCCC1CCN(c2ccc(C(=O)Nc3cnc4ccccc4c3)cn2)CC1 : 0.49
17. CN(CCc1ccccc1)c1ccc(CCC(=O)Nc2cnc3ccccc3c2)cc1 : 0.18
18. Cc1ccc(C(C)CCN(C)c2ccc(C(=O)Nc3cnc4ccccc4c3)cc2)o1 (stereo not drawn) : 1.5
19. CCCCCNc1ccc(C(=O)Nc2cnc3ccccc3c2)cc1 [4-Pentylamino-N-quinolin-3-yl-benzamide] : 8.1
20. O=C(Nc1cnc2ccccc2c1)c1ccc(N2CCCCCCC2)cc1 [4-Azocan-1-yl-N-quinolin-3-yl-benzamide] : 0.29
21. O=C(CCc1ccc2c(c1)CCC2)Nc1cnc2ccccc2c1 : 10
